# Organism: Rattus norvegicus
# assay summary: Open TG-GATES - Regimen: Single
# Assay type: toxicity, organism-based, Sprague-Dawley
# Parameters: regimen Single, gender Male, age 6 weeks
# protocol conditions: in vivo, po, 0 mg/kg, 3 h, tissue Plasma, route gavage, dose level Control
readout name: PL (mg/dL)
State just the number; it will be interpreted in mg/dL.

Qu. Note down PL recorded for C[C@@H]1C[C@H]2[C@@H]3CCC4=CC(=O)C=C[C@]4(C)[C@@]3(F)[C@@H](O)C[C@]2(C)[C@@]1(O)C(=O)CO [DEXAMETHASONE]
Ans. 140.6

Qu. Note down PL recorded for CN1C(=O)CN=C(c2ccccc2)c2cc(Cl)ccc21 [DIAZEPAM]
Ans. 131.6

Qu. Note down PL recorded for NNC(=O)c1ccncc1 [ISONIAZID]
Ans. 148.2

###

# Species on record: Rattus norvegicus
# assay summary: Open TG-GATES - Regimen: Single
# Assay type: toxicity, organism-based, Sprague-Dawley
# Design: regimen Single, gender Male, age 6 weeks
# protocol conditions: in vivo, po, 10 mg/kg, 3 h, tissue Blood, route gavage, dose level Low
I'd appreciate it if you marked entries MET when Mono is lower than 3% and NOT MET when it is not.

// known answers, use as guide
Qu. Hello, I'm reviewing records and need to know if Mono of CN(C)CCCN1c2ccccc2CCc2ccc(Cl)cc21 [CLOMIPRAMINE] is below 3%. Could you check?
Ans. NOT MET

Qu. Hello, I'm reviewing records and need to know if Mono of CC(C)OC(=O)C(C)(C)Oc1ccc(C(=O)c2ccc(Cl)cc2)cc1 [FENOFIBRATE] is below 3%. Could you check?
Ans. NOT MET

***
Qu. Hello, I'm reviewing records and need to know if Mono of CC1=C(/C=C/C(C)=C/C=C/C(C)=C/CO)C(C)(C)CCC1 [RETINOL] is below 3%. Could you check?
Ans. MET

Qu. Hello, I'm reviewing records and need to know if Mono of CN(C)CCN(Cc1cccs1)c1ccccn1 is below 3%. Could you check?
Ans. MET

Qu. Hello, I'm reviewing records and need to know if Mono of CN(C)CCCN1c2ccccc2CCc2ccccc21 [IMIPRAMINE] is below 3%. Could you check?
Ans. MET

###

# Species on record: Rattus norvegicus
# assay summary: Open TG-GATES - Regimen: Daily Repeat
# Type: toxicity, organism-based, Sprague-Dawley
# Parameters: regimen Daily Repeat, gender Male, age 6 weeks
# protocol conditions: in vivo, po, 0 mg/kg, […], tissue Plasma, route gavage, dose level Control, time 28 day
readout name: TP (g/dL)
State just the number; it will be interpreted in g/dL.

Qu. Note down TP recorded for NC(N)=Nc1nc(CSCCC(N)=NS(N)(=O)=O)cs1
Ans. 6.1

Qu. Note down TP recorded for CCCNC(=O)NS(=O)(=O)c1ccc(Cl)cc1 [CHLORPROPAMIDE]
Ans. 6.1

Qu. Note down TP recorded for COC1=CC(=O)C[C@@H](C)[C@]12Oc1c(Cl)c(OC)cc(OC)c1C2=O
Ans. 6

Qu. Note down TP recorded for CN1C(=O)CN=C(c2ccccc2)c2cc(Cl)ccc21
Ans. 6.6

***
Qu. Note down TP recorded for CC(C)OC(=O)C(C)(C)Oc1ccc(C(=O)c2ccc(Cl)cc2)cc1 [FENOFIBRATE]
Ans. 6.3

###

# Organism: Rattus norvegicus
# assay summary: Open TG-GATES - Regimen: Daily Repeat
# Assay type: toxicity, organism-based, Sprague-Dawley
# Parameters: regimen Daily Repeat, gender Male, age 6 weeks
# protocol conditions: in vivo, po, 1000 mg/kg, […], tissue Plasma, route gavage, dose level High, time 14 day
readout name: ALP (IU/L)
State just the number; it will be interpreted in IU/L.

For orientation, consider the following solved cases.
Qu. Note down ALP recorded for NC(N)=Nc1nc(CSCCC(N)=NS(N)(=O)=O)cs1
Ans. 838

Qu. Note down ALP recorded for CCOC(=O)CCC(=O)O[C@H]1[C@H](O[C@@H]2[C@@H](C)[C@H](O[C@H]3C[C@@](C)(OC)[C@@H](O)[C@H](C)O3)[C@@H](C)C(=O)O[C@H](CC)[C@@](C)(O)[C@H](O)[C@@H](C)C(=O)[C@H](C)C[C@@]2(C)O)O[C@H](C)C[C@@H]1N(C)C [ERYTHROMYCIN ETHYLSUCCINATE]
Ans. 1716

Qu. Note down ALP recorded for CCOc1ccc(NC(=O)CC(C)O)cc1 (stereo not given)
Ans. 1241.8

Qu. Note down ALP recorded for COC1=CC(=O)C[C@@H](C)[C@]12Oc1c(Cl)c(OC)cc(OC)c1C2=O
Ans. 803.4

As a next step, examine the molecule that follows.
Qu. Note down ALP recorded for COc1ccc2[nH]c([S+]([O-])Cc3ncc(C)c(OC)c3C)nc2c1 (stereo not given)
Ans. 599

###

# Species: Rattus norvegicus
# assay summary: Open TG-GATES - Regimen: Daily Repeat
# Type: toxicity, organism-based, Sprague-Dawley
# Design: regimen Daily Repeat, gender Male, age 6 weeks
# protocol conditions: in vivo, po, 1000 mg/kg, 72 h, tissue Blood, route gavage, dose level High, time 3 day
readout name: MCHC (%)
State just the number; it will be interpreted in %.

For orientation, consider the following solved cases.
Qu. Note down MCHC recorded for CCOc1ccc(NC(=O)CC(C)O)cc1 (stereo unspecified) [BUCETIN]
Ans. 33.4

Qu. Note down MCHC recorded for COC1=CC(=O)C[C@@H](C)[C@]12Oc1c(Cl)c(OC)cc(OC)c1C2=O [GRISEOFULVIN]
Ans. 33.8

***
Qu. Note down MCHC recorded for COc1ccc2[nH]c([S+]([O-])Cc3ncc(C)c(OC)c3C)nc2c1 (stereo unspecified) [OMEPRAZOLE]
Ans. 34.8

Qu. Note down MCHC recorded for CC(C)OC(=O)C(C)(C)Oc1ccc(C(=O)c2ccc(Cl)cc2)cc1 [FENOFIBRATE]
Ans. 33

Qu. Note down MCHC recorded for NC(N)=Nc1nc(CSCCC(N)=NS(N)(=O)=O)cs1 [FAMOTIDINE]
Ans. 36

Qu. Note down MCHC recorded for CCOC(=O)CCC(=O)O[C@H]1[C@H](O[C@@H]2[C@@H](C)[C@H](O[C@H]3C[C@@](C)(OC)[C@@H](O)[C@H](C)O3)[C@@H](C)C(=O)O[C@H](CC)[C@@](C)(O)[C@H](O)[C@@H](C)C(=O)[C@H](C)C[C@@]2(C)O)O[C@H](C)C[C@@H]1N(C)C [ERYTHROMYCIN ETHYLSUCCINATE]
Ans. 34.4

###

Reported TERMINAL_BW is given for each of the following compounds.
# Species on record: Rattus norvegicus
# assay summary: Open TG-GATES - Regimen: Single
# Format: toxicity, organism-based, Sprague-Dawley
# Parameters: regimen Single, gender Male, age 6 weeks
# protocol conditions: in vivo, po, 100 mg/kg, 3 h, route gavage, dose level Low
State just the number; it will be interpreted in g.

Qu. Note down TERMINAL_BW recorded for COC1=CC(=O)C[C@@H](C)[C@]12Oc1c(Cl)c(OC)cc(OC)c1C2=O
Ans. 211.4

Qu. Note down TERMINAL_BW recorded for NC(N)=Nc1nc(CSCCC(N)=NS(N)(=O)=O)cs1
Ans. 213.7

Qu. Note down TERMINAL_BW recorded for CCOC(=O)CCC(=O)O[C@H]1[C@H](O[C@@H]2[C@@H](C)[C@H](O[C@H]3C[C@@](C)(OC)[C@@H](O)[C@H](C)O3)[C@@H](C)C(=O)O[C@H](CC)[C@@](C)(O)[C@H](O)[C@@H](C)C(=O)[C@H](C)C[C@@]2(C)O)O[C@H](C)C[C@@H]1N(C)C [ERYTHROMYCIN ETHYLSUCCINATE]
Ans. 214.5

As a next step, examine the compound that follows.
Qu. Note down TERMINAL_BW recorded for COc1ccc2[nH]c([S+]([O-])Cc3ncc(C)c(OC)c3C)nc2c1 (centres undefined)
Ans. 221.4

###

Reported MCV is given for each of the following compounds.
# Organism: Rattus norvegicus
# assay summary: Open TG-GATES - Regimen: Daily Repeat
# Assay type: toxicity, organism-based, Sprague-Dawley
# Set-up: regimen Daily Repeat, gender Male, age 6 weeks
# protocol conditions: in vivo, po, 1000 mg/kg, […], tissue Blood, route gavage, dose level High, time 28 day
State just the number; it will be interpreted in fL.

Qu. Note down MCV recorded for CCOC(=O)CCC(=O)O[C@H]1[C@H](O[C@@H]2[C@@H](C)[C@H](O[C@H]3C[C@@](C)(OC)[C@@H](O)[C@H](C)O3)[C@@H](C)C(=O)O[C@H](CC)[C@@](C)(O)[C@H](O)[C@@H](C)C(=O)[C@H](C)C[C@@]2(C)O)O[C@H](C)C[C@@H]1N(C)C [ERYTHROMYCIN ETHYLSUCCINATE]
Ans. 54.3

Qu. Note down MCV recorded for COC1=CC(=O)C[C@@H](C)[C@]12Oc1c(Cl)c(OC)cc(OC)c1C2=O
Ans. 60.1

As a next step, examine the compound that follows.
Qu. Note down MCV recorded for COc1ccc2[nH]c([S+]([O-])Cc3ncc(C)c(OC)c3C)nc2c1 (stereo not drawn)
Ans. 51.3
